Tested on: Pseudomonas aeruginosa
test-description: Antibacterial activity against Pseudomonas aeruginosa at 100 ug/ml after 24 hr by disk diffusion method
Format: functional
measurement-setup: read-out: DIZ
Label rule met when zone of inhibition at 100 µg/mL >= 10 mm; otherwise rule not met.

Exam item: Test whether the molecule O=C1N(c2ccccc2)C(=O)C(c2ccccc2)(c2ccccc2)N1CN1CCOCC1 records zone of inhibition at 100 µg/mL of 10 mm or higher.
Marked response: rule not met

Exam item: Form field: zone of inhibition at 100 µg/mL at least 10 mm? Entry: O=C1N(c2ccccc2)C(=O)C(c2ccccc2)(c2ccccc2)N1CNc1nccs1
Marked response: rule met

Exam item: Evaluate CN1CCN(CN2C(=O)NC(c3ccccc3)(c3ccccc3)C2=O)CC1 : zone of inhibition at 100 µg/mL at minimum 10 mm?
Marked response: rule not met

Exam item: Quick check: does CC1(C)S[C@@H]2[C@H](NC(=O)[C@H](N)c3ccccc3)C(=O)N2[C@H]1C(=O)O have zone of inhibition at 100 µg/mL greater than or equal to 10 mm?
Marked response: rule met

Exam item: Is it the case that O=C1NC(c2ccccc2)(c2ccccc2)C(=O)N1CNc1nc2ccccc2s1 has zone of inhibition at 100 µg/mL reaching or exceeding 10 mm?
Marked response: rule met

Exam item: Does the molecule CN1CCN(CN2C(=O)N(c3ccccc3)C(=O)C2(c2ccccc2)c2ccccc2)CC1 have recorded zone of inhibition at 100 µg/mL that is 10 mm or more?
Marked response: rule not met

Exam item: Could you verify whether the entry O=C1N(c2ccccc2)C(=O)C(c2ccccc2)(c2ccccc2)N1Cn1ccnc1 shows zone of inhibition at 100 µg/mL of no less than 10 mm?
Marked response: rule not met

Exam item: Given the entry O=C1N(c2ccccc2)C(=O)C(c2ccccc2)(c2ccccc2)N1CNc1nc2ccccc2s1 , answer whether its zone of inhibition at 100 µg/mL meets or surpasses 10 mm.
Marked response: rule met
